Known inhibition of a selection of molecules
- TESTED_ON: Human immunodeficiency virus type 1 integrase (Human immunodeficiency virus 1) (UniProt Q7ZJM1)
- Sequence (Q7ZJM1 as listed by the source): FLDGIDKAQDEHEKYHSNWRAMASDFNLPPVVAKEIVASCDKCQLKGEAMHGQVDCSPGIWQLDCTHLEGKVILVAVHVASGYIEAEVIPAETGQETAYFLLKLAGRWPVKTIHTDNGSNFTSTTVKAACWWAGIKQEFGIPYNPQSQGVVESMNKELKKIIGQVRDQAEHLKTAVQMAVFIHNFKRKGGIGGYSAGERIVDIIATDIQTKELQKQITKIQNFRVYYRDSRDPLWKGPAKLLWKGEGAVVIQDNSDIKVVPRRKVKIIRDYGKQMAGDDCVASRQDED
- METHOD: Inhibition of HIV-1 Integrase at 1:50 protein/compound molar ratio
- MEASUREMENT_CONTEXT: concentration not given here
Numbered stars: 1 amine (or outer) side, 2 acyl side, 3 side chain; on linkers, the order of the positions; unused ones are H or OH. Bridge positions count the residues as written; N and C are the ends. Square brackets hold non-standard residues; d marks the D form. Peptide text beside a SMILES is read from it. X2 = O=C(c1ccccc1-c1c2ccc(=O)cc-2oc2cc(O)ccc12)N(CCC(=O)[*:1])C(=O)[*:2]; X1 = O=C(c1ccccc1-c1c2ccc(=O)cc-2oc2cc(O)ccc12)N(CC(=O)[*:1])C(=O)[*:2]; N(6-aminohexyl)Gly = O=C(CN(CCCCCCN[*:3])[*:1])[*:2]; N(2-Aminoethyl)Gly = O=C(CN(CCN[*:3])[*:1])[*:2]; Nlys = NCCCCNCC(=O)O
# value in %; strip the unit string

Below, 3 molecules whose answers are already recorded.
1) CC[C@H](C)[C@@H]1NC(=O)[C@H](CCCCN)NC(=O)[C@H](CC(C)C)NC(=O)[C@H](CO)NC(=O)[C@H](CC(N)=O)NC(=O)[C@H](Cc2c[nH]c3ccccc23)NC(=O)CCN(C(=O)c2ccccc2-c2c3ccc(=O)cc-3oc3cc(O)ccc23)C(=O)NCCN(CC(N)=O)C(=O)[C@H](C(C)C)NC(=O)[C@H](CC(=O)O)NC(=O)[C@H](CC(C)C)NC(=O)[C@H](CC(N)=O)NC(=O)[C@H](CC(=O)O)NC1=O (WNSLKIDNLDV[N(2-Aminoethyl)Gly]-NH2; linker N-12 via X2) :: 54
2) CC[C@H](C)[C@@H]1NC(=O)[C@H](CCCCN)NC(=O)[C@H](CC(C)C)NC(=O)[C@H](CO)NC(=O)[C@H](CC(N)=O)NC(=O)[C@H](Cc2c[nH]c3ccccc23)NC(=O)CN(C(=O)c2ccccc2-c2c3ccc(=O)cc-3oc3cc(O)ccc23)C(=O)NCCCCN(CC(N)=O)C(=O)[C@H](C(C)C)NC(=O)[C@H](CC(=O)O)NC(=O)[C@H](CC(C)C)NC(=O)[C@H](CC(N)=O)NC(=O)[C@H](CC(=O)O)NC1=O (WNSLKIDNLDV[Nlys]-NH2; linker N-12 via X1) :: 90
3) CC[C@H](C)[C@@H]1NC(=O)[C@H](CCCCN)NC(=O)[C@H](CC(C)C)NC(=O)[C@H](CO)NC(=O)[C@H](CC(N)=O)NC(=O)[C@H](Cc2c[nH]c3ccccc23)NC(=O)CN(C(=O)c2ccccc2-c2c3ccc(=O)cc-3oc3cc(O)ccc23)C(=O)NCCN(CC(N)=O)C(=O)[C@H](C(C)C)NC(=O)[C@H](CC(=O)O)NC(=O)[C@H](CC(C)C)NC(=O)[C@H](CC(N)=O)NC(=O)[C@H](CC(=O)O)NC1=O (WNSLKIDNLDV[N(2-Aminoethyl)Gly]-NH2; linker N-12 via X1) :: 51

Prompt line: Item CC[C@H](C)[C@@H]1NC(=O)[C@H](CCCCN)NC(=O)[C@H](CC(C)C)NC(=O)[C@H](CO)NC(=O)[C@H](CC(N)=O)NC(=O)[C@H](Cc2c[nH]c3ccccc23)NC(=O)CCN(C(=O)c2ccccc2-c2c3ccc(=O)cc-3oc3cc(O)ccc23)C(=O)NCCCCCCN(CC(N)=O)C(=O)[C@H](C(C)C)NC(=O)[C@H](CC(=O)O)NC(=O)[C@H](CC(C)C)NC(=O)[C@H](CC(N)=O)NC(=O)[C@H](CC(=O)O)NC1=O (WNSLKIDNLDV[N(6-aminohexyl)Gly]-NH2; linker N-12 via X2) has what recorded inhibition?
Response line: 48
